Answer each item with its documented pIC50.
Biological target: T1, human Protein S (UniProt P07225 42-676)
T1 chain: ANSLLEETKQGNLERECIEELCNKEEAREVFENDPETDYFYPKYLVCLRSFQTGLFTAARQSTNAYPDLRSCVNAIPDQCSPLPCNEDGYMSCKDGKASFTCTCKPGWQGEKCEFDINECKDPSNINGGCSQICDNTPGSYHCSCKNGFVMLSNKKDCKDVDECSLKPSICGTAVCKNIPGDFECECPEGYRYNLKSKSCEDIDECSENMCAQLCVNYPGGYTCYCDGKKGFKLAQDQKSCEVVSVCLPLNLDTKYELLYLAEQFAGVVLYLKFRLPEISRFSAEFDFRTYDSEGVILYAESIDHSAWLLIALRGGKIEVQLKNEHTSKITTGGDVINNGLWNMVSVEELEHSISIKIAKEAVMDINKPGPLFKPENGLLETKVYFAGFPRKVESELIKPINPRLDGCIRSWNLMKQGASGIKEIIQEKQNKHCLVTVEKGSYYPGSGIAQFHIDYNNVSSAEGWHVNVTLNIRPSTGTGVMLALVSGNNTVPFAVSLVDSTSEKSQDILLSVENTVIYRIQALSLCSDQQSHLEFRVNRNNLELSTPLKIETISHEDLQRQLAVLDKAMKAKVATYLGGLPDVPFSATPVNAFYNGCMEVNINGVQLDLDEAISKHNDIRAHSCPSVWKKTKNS
Experiment: LANCE competition
Non-standard residues stand in square brackets, D forms with d. Cys(Me-400MA) = not defined here
Give bare numbers, as −log10 of the molar value.

Ac-NMYVSAGWYNYNEDTYEEFY-NH2 [JBS3289]; 8.60
Ac-YVTVSAGWYDYNKDEYFEFY-NH2 [JBS3309]; 8.96

Could I get pIC50 for every one of these entries?
1. Ac-EATVSIGWYDYNKDEYYEFY-NH2 [JBS3291]
2. Ac-EYIVTAGWYDYNKDIYYEFK[Cys(Me-400MA)]-NH2 (reading uncertain, JBS3206 monomer comprising a 40 kD PEG moiety) [JBS3322]
3. Ac-DNYVSAGWYDYNTDTYYEFY-NH2 [JBS3297]
4. Ac-EYYVSAGWYDYNTDTYYEFT-NH2 [JBS3314]

[8.10, 8.35, 9.00, 9.10]
